These entries and their values trace back to the supplement of paper PMC6555819.

System: RARb:RXRa (NR concentration 270 nM, RXRa partner concentration 90 nM)
Test: PBM binding z-score (relative to random genomic background probes); higher = stronger binding; sequences stand for … in GC…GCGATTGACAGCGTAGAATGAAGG
Experimental Endpoint: PBM binding z-score
Answer using only a numeral; do not append any unit.

GET /values?readout=PBM binding z-score&item= TCGAGTAGGTTAGGGGCGTTCAGAATGGCGTCGA
0.552

Field entry: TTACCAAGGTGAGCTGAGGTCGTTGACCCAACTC
1.91

Field entry: GATTCAGGGTCAAGGCCAGAGTACGCGTATTGAT
4.92

Field entry: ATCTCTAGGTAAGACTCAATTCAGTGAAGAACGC
0.115

Field entry: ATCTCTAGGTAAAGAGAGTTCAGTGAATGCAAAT
1.16

Field entry: GCTCGGAGGACAACGTCAGAGCTTTGTCCGTAGA
0.852

Field entry: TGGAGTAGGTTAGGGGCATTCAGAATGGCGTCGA
1.6

---

Tested on: THRa homodimer (NR concentration 90 nM)
Test: PBM binding z-score (relative to random genomic background probes); higher = stronger binding; sequences stand for … in GC…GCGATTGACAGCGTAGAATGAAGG
Classification field: criterion met = PBM binding z-score at or over 0.2; criterion not met = PBM binding z-score under 0.2.

Hello, I need to know if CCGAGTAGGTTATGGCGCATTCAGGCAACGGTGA has measured PBM binding z-score not below 0.2. Thanks!
criterion met

Field entry: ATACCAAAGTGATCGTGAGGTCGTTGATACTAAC
criterion met

Field entry: CCTCGCAGGACAGAAGGTCAGAGCTGTCCGCTTT
criterion not met

Field entry: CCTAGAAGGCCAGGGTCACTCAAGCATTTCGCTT
criterion met

Field entry: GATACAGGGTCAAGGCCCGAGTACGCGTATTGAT
criterion met

Field entry: ACTATTAGTTGACTTAGGGCAACCGTTACGACGC
criterion met

Field entry: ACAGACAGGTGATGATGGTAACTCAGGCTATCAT
criterion not met

Field entry: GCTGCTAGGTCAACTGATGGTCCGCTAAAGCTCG
criterion met

Field entry: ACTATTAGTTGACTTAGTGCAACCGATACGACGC
criterion not met

Field entry: CCTGCTAGGTCAATGGTCGGCTAAAGCAGCTCGC
criterion met

Field entry: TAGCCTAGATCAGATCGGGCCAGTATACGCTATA
criterion not met

Field entry: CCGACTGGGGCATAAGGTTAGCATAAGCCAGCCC
criterion met

Field entry: TGAATGAGGTTATAAGATCAGTGAACGTTGCAAA
criterion not met

Field entry: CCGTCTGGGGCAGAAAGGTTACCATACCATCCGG
criterion not met

Field entry: GCTTATAGGTAATACAAGGTGAAAGTCCGATTGT
criterion met

Field entry: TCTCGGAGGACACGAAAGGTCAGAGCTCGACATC
criterion met

Field entry: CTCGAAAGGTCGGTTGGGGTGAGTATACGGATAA
criterion met

Field entry: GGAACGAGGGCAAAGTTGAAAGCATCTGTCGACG
criterion not met

Field entry: GATACAGGGTCAGGTAGAGGCCAGAGTATGGAAA
criterion met

Field entry: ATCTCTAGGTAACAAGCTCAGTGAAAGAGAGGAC
criterion met

Field entry: CAAACTTGGTCAAGGTCAAAGTCGGTTTGTGCCA
criterion met

Field entry: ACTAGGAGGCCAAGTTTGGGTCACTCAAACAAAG
criterion met

Field entry: TCATATAGGTAAACAGGTGACAGTCCGTAAGTTA
criterion met

Field entry: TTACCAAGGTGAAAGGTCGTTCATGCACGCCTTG
criterion met

Field entry: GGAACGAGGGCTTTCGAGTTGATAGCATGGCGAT
criterion not met

Field entry: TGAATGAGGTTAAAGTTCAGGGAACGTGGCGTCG
criterion met

Field entry: TCATATAGTTAATACAGGTGAAAGTCGGCATCTA
criterion met

Field entry: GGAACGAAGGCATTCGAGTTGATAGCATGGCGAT
criterion not met

Field entry: ATCTCTAGCTAACAAGTTCAGTGAAAGAGAGGAC
criterion met

Field entry: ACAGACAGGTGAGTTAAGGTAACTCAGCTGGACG
criterion met

Field entry: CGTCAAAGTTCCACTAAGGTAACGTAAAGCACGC
criterion met

Field entry: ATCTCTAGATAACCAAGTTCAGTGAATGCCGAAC
criterion not met

Field entry: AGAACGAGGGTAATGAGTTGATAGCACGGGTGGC
criterion not met

Field entry: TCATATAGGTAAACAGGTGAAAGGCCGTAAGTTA
criterion met

Field entry: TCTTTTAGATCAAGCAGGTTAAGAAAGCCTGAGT
criterion not met

Field entry: TGAATGAGGTTATAAGATCAGGGACCGTTGCAAA
criterion not met

Field entry: CAAACTAGGTCAAAGGTCAAAGGCGAGCCAACCA
criterion met

Field entry: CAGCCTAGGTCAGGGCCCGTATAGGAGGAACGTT
criterion met

Field entry: TCTTGTAGATGAACAGGAGGTTAAGAAAGATCGA
criterion not met

Field entry: ACCATTAGTTGAGACGAGGGCAACCGATAGGTTG
criterion met

Field entry: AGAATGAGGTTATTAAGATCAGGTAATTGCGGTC
criterion met

Field entry: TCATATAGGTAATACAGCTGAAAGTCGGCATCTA
criterion not met

Field entry: ACCTCTAGGTAAGACTCAGTTCAGTGAAGAACGC
criterion not met

Field entry: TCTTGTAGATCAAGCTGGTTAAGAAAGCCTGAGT
criterion not met

---

Tested on: PXR:RXRa (NR concentration 270 nM, RXRa partner concentration 90 nM)
Assay: PBM binding z-score (relative to random genomic background probes); higher = stronger binding; sequences stand for … in GC…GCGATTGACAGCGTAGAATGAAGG
Experimental Endpoint: PBM binding z-score
Answer using only a numeral; do not append any unit.

GET /values?readout=PBM binding z-score&item= CATACAGGGTCAGCTAGGCGAGAGTAGGGACGGC
1.83

Field entry: CGTCCCAGGTCAGAGAGGTCAGTGAATGCCGAGT
5.38

Field entry: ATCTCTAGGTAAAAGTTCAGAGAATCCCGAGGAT
1.99

Field entry: ATATGTAGGTTAAGGGTCTTTCAGGTTGGTTCGC
1.45

Field entry: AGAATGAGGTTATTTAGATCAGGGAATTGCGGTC
1.34

Field entry: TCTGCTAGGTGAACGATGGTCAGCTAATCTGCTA
-0.428

Field entry: CGAACTAGGTCATTGACTGGACAGTGAATAGTAA
0.89

Field entry: TCTAGTTGGGCAAAGGTCACACACTCGAAATGCG
5.64

Field entry: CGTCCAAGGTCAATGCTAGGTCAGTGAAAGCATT
5.01

Field entry: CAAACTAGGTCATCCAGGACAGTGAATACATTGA
2.23

Field entry: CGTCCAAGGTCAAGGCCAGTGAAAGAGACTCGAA
3.44

Field entry: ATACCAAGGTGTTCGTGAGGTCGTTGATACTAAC
2.41

Field entry: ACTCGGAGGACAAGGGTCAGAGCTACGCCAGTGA
1.93

Field entry: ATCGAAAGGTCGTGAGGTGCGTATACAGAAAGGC
2.98

Field entry: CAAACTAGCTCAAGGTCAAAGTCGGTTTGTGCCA
4.39

Field entry: TGAATGAGGTTAAAGAGCAGGGAACGTGGCGTCG
1.53

Field entry: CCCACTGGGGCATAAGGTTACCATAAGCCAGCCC
0.0928

Field entry: GCTAGCAGGCCATTTGGGTCACTCGATGACGGGC
0.388

Field entry: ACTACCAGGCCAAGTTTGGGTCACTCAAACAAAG
0.921

Field entry: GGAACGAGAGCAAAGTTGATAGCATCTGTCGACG
-0.47

Field entry: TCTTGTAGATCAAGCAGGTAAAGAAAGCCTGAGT
0.0667

Field entry: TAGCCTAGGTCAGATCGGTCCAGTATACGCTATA
2.34

Field entry: ATCGAAAGGTCGTGAGGTGAGTATGCAGAAAGGC
2.98

Field entry: CCAGACAGGTGAGAAGGGAACTCAGCCTCGATTA
-0.225

Field entry: AATACAGGGCCACTAGGCCAGAGTAGGTACGAAT
-0.239

Field entry: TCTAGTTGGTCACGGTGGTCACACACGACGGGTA
0.537

Field entry: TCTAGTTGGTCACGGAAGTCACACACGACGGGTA
0.653

Field entry: TCTCGGAGGAAACGAAGGTCAGAGCTTTCCAGAG
0.848

Field entry: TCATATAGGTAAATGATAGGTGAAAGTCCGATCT
0.828

Field entry: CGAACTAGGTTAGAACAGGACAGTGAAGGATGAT
-0.0109

Field entry: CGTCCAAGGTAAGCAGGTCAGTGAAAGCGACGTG
0.192

Field entry: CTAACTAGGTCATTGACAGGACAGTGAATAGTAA
1.52

Field entry: ATATGTAGGTTAAGGGTCATTCAAGTTGGTTCGC
5.92

Field entry: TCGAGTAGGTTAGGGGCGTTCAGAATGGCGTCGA
0.471

Field entry: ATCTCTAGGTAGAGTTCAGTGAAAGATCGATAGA
2.52

Field entry: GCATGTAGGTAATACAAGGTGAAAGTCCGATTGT
0.369

Field entry: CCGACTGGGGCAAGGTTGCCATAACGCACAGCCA
-0.535

Field entry: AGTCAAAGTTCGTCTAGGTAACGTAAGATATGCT
1.99

Field entry: CGAACTAGGTCATAGACAGGACAGTGAATAGTAA
1.43

Field entry: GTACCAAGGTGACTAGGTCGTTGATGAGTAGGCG
0.12

Field entry: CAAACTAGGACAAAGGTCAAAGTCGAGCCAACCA
5.62

Field entry: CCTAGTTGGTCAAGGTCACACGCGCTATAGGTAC
4.09

Field entry: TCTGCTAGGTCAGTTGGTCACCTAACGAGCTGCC
0.216

Field entry: ACCTCTAGGTAACCAAGTTCAGTGAATGCCGAAC
1.65

Field entry: CCTACTTGGCCACGAAAGGTCATTGATTCAGTGA
5.3

Field entry: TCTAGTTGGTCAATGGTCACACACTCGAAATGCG
0.698
